Every entry's value here was drawn from patent US7445765B2.

Test: Biodistribution of the 99mTc(N) heterocomplexes in rats (organ uptake, heart accumulation, heart/lung and heart/liver ratios)
Type: in vivo, female Sprague-Dawley rats
Conditions: 60 min post injection
Kindly supply the reported Biodistribution in rats: Lungs values for the records listed here.
Number only, in % dose/g; omit the unit.

Q: Let me know recorded Biodistribution in rats: Lungs for CCOCCN1CC[P](CCCOC)(CCCOC)[99Tc+]2(#[N])([S]C(N(CCOCC)C(C)C)=[S]2)[P](CCCOC)(CCCOC)CC1 [[^99mTc(N) (PNP5) (ISOET)]^+] , thanks.
Ans: 0.35

Q: Let me know recorded Biodistribution in rats: Lungs for CCOCCN1CC[P](CCCOC)(CCCOC)[99Tc+]2(#[N])([S]C(N(CCOCC)CCOCC)=[S]2)[P](CCCOC)(CCCOC)CC1 [[^99mTc(N) (PNP5) (DBODC)]^+] , thanks.
Ans: 0.46

----------
Experiment: Biodistribution of the 99mTc(N) heterocomplexes in rats (organ uptake, heart accumulation, heart/lung and heart/liver ratios)
Assay type: in vivo, female Sprague-Dawley rats
Conditions: 120 min post injection
reported.metric: Biodistribution in rats: Intestine (% ID/g)
Number only, in % ID/g; omit the unit.

Q: Let me know recorded Biodistribution in rats: Intestine for CCOCCN(CCOCC)C1=[S][99Tc+]2(#[N])([S]1)[P](CCCOC)(CCCOC)CCN(CCOC)CC[P]2(CCCOC)CCCOC [[^99mTc(N) (PNP3) (DBODC)]^+] , thanks.
Ans: 7.03

Q: Let me know recorded Biodistribution in rats: Intestine for COCCC[P]1(CCCOC)CCN(CCOC)CC[P](CCCOC)(CCCOC)[99Tc+]12(#[N])[S]C(N(CCOC)CCOC)=[S]2 [[^99mTc(N) (PNP3) (DPODC)]^+] , thanks.
Ans: 16.10

----------
Experiment: Biodistribution of the 99mTc(N) heterocomplexes in rats (organ uptake, heart accumulation, heart/lung and heart/liver ratios)
Format: in vivo, female Sprague-Dawley rats
Settings: 10 min post injection
reported.metric: Biodistribution in rats: Liver (% ID/g)
Number only, in % ID/g; omit the unit.

Q: Let me know recorded Biodistribution in rats: Liver for COCCC[P]1(CCCOC)CCN(CCOC)CC[P](CCCOC)(CCCOC)[99Tc+]12(#[N])[S]C(N(CCOC)CCOC)=[S]2 [[^99mTc(N) (PNP3) (DPODC)]^+] , thanks.
Ans: 3.49

Q: Let me know recorded Biodistribution in rats: Liver for CCOCCN(CCOCC)C1=[S][99Tc+]2(#[N])([S]1)[P](CCCOC)(CCCOC)CCN(CCOC)CC[P]2(CCCOC)CCCOC [[^99mTc(N) (PNP3) (DBODC)]^+] , thanks.
Ans: 1.43

----------
Assay: Biodistribution of the 99mTc(N) heterocomplexes in rats (organ uptake, heart accumulation, heart/lung and heart/liver ratios)
Type: in vivo, female Sprague-Dawley rats
Conditions: 20 min post injection
Kindly supply the reported Biodistribution in rats: Brain values for the records listed here.
Number only, in % dose/g; omit the unit.

Q: Let me know recorded Biodistribution in rats: Brain for CCOCCN1CC[P](CCCOC)(CCCOC)[99Tc+]2(#[N])([S]C(N(CCOCC)CCOCC)=[S]2)[P](CCCOC)(CCCOC)CC1 [[^99mTc(N) (PNP5) (DBODC)]^+] , thanks.
Ans: 0.01

Q: Let me know recorded Biodistribution in rats: Brain for CCOCCN1CC[P](CCCOC)(CCCOC)[99Tc+]2(#[N])([S]C(N(CCOCC)C(C)C)=[S]2)[P](CCCOC)(CCCOC)CC1 [[^99mTc(N) (PNP5) (ISOET)]^+] , thanks.
Ans: 0.01

----------
Kindly supply the reported Biodistribution in rats: Muscle values for the records listed here.
Assay: Biodistribution of the 99mTc(N) heterocomplexes in rats (organ uptake, heart accumulation, heart/lung and heart/liver ratios)
Type: in vivo, female Sprague-Dawley rats
Conditions: 20 min post injection

Q: Let me know recorded Biodistribution in rats: Muscle for CCOCCN1CC[P](CCCOC)(CCCOC)[99Tc+]2(#[N])([S]C(N(CCOCC)C(C)C)=[S]2)[P](CCCOC)(CCCOC)CC1 [[^99mTc(N) (PNP5) (ISOET)]^+] , thanks.
Ans: 0.20 % dose/g

Q: Let me know recorded Biodistribution in rats: Muscle for CCOCCN(CCOCC)C1=[S][99Tc+]2(#[N])([S]1)[P](CCCOC)(CCCOC)CCN(CCOC)CC[P]2(CCCOC)CCCOC [[^99mTc(N) (PNP3) (DBODC)]^+] , thanks.
Ans: 0.13 ± 0.02 % ID/g

Q: Let me know recorded Biodistribution in rats: Muscle for CCOCCN1CC[P](CCCOC)(CCCOC)[99Tc+]2(#[N])([S]C(N(CCOCC)CCOCC)=[S]2)[P](CCCOC)(CCCOC)CC1 [[^99mTc(N) (PNP5) (DBODC)]^+] , thanks.
Ans: 0.17 % dose/g

Q: Let me know recorded Biodistribution in rats: Muscle for COCCC[P]1(CCCOC)CCN(CCOC)CC[P](CCCOC)(CCCOC)[99Tc+]12(#[N])[S]C(N(CCOC)CCOC)=[S]2 [[^99mTc(N) (PNP3) (DPODC)]^+] , thanks.
Ans: 0.39 ± 0.12 % ID/g

----------
Assay: Biodistribution of the 99mTc(N) heterocomplexes in rats (organ uptake, heart accumulation, heart/lung and heart/liver ratios)
Assay type: in vivo, female Sprague-Dawley rats
Details: 60 min post injection
Kindly supply the reported Biodistribution in rats: Heart values for the records listed here.
Number only, in % dose/g; omit the unit.

Q: Let me know recorded Biodistribution in rats: Heart for CCOCCN1CC[P](CCCOC)(CCCOC)[99Tc+]2(#[N])([S]C(N(CCOCC)CCOCC)=[S]2)[P](CCCOC)(CCCOC)CC1 [[^99mTc(N) (PNP5) (DBODC)]^+] , thanks.
Ans: 3.76

Q: Let me know recorded Biodistribution in rats: Heart for CCOCCN1CC[P](CCCOC)(CCCOC)[99Tc+]2(#[N])([S]C(N(CCOCC)C(C)C)=[S]2)[P](CCCOC)(CCCOC)CC1 [[^99mTc(N) (PNP5) (ISOET)]^+] , thanks.
Ans: 2.74

----------
Kindly supply the reported Biodistribution in rats: Blood values for the records listed here.
Experiment: Biodistribution of the 99mTc(N) heterocomplexes in rats (organ uptake, heart accumulation, heart/lung and heart/liver ratios)
Type: in vivo, female Sprague-Dawley rats
Conditions: 60 min post injection
Procedure: The biodistribution was measured by using female Sprague-Dawley rats (SD rats) weighing 200 g to 250 g. Each of the ^99mTc(N) heterocomplexes purified in the manner described above was diluted with phosphate buffer (0.1 M, pH=7.4) to obtain a final solution having an ethanol content of 10%. […] The blood was withdrawn from the heart through a syringe and counted. […] The organs were excised from the rats, washed with physiological saline, weighed, and counted in a NaI well counter. […]
Number only, in % ID/g; omit the unit.

Q: Let me know recorded Biodistribution in rats: Blood for CCOCCN(CCOCC)C1=[S][99Tc+]2(#[N])([S]1)[P](CCCOC)(CCCOC)CCN(CCOC)CC[P]2(CCCOC)CCCOC [[^99mTc(N) (PNP3) (DBODC)]^+] , thanks.
Ans: 0.01

Q: Let me know recorded Biodistribution in rats: Blood for COCCC[P]1(CCCOC)CCN(CCOC)CC[P](CCCOC)(CCCOC)[99Tc+]12(#[N])[S]C(N(CCOC)CCOC)=[S]2 [[^99mTc(N) (PNP3) (DPODC)]^+] , thanks.
Ans: 0.02

----------
Kindly supply the reported Biodistribution in rats: Adrenal glands values for the records listed here.
Test: Biodistribution of the 99mTc(N) heterocomplexes in rats (organ uptake, heart accumulation, heart/lung and heart/liver ratios)
Type: in vivo, female Sprague-Dawley rats
Settings: 10 min post injection
Number only, in % dose/g; omit the unit.

Q: Let me know recorded Biodistribution in rats: Adrenal glands for CCOCCN1CC[P](CCCOC)(CCCOC)[99Tc+]2(#[N])([S]C(N(CCOCC)C(C)C)=[S]2)[P](CCCOC)(CCCOC)CC1 [[^99mTc(N) (PNP5) (ISOET)]^+] , thanks.
Ans: 2.70

Q: Let me know recorded Biodistribution in rats: Adrenal glands for CCOCCN1CC[P](CCCOC)(CCCOC)[99Tc+]2(#[N])([S]C(N(CCOCC)CCOCC)=[S]2)[P](CCCOC)(CCCOC)CC1 [[^99mTc(N) (PNP5) (DBODC)]^+] , thanks.
Ans: 3.73

----------
Kindly supply the reported Biodistribution in rats: Kidneys values for the records listed here.
Assay: Biodistribution of the 99mTc(N) heterocomplexes in rats (organ uptake, heart accumulation, heart/lung and heart/liver ratios)
Assay type: in vivo, female Sprague-Dawley rats
Conditions: 120 min post injection
Number only, in % dose/g; omit the unit.

Q: Let me know recorded Biodistribution in rats: Kidneys for CCOCCN1CC[P](CCCOC)(CCCOC)[99Tc+]2(#[N])([S]C(N(CCOCC)C(C)C)=[S]2)[P](CCCOC)(CCCOC)CC1 [[^99mTc(N) (PNP5) (ISOET)]^+] , thanks.
Ans: 4.50

Q: Let me know recorded Biodistribution in rats: Kidneys for CCOCCN1CC[P](CCCOC)(CCCOC)[99Tc+]2(#[N])([S]C(N(CCOCC)CCOCC)=[S]2)[P](CCCOC)(CCCOC)CC1 [[^99mTc(N) (PNP5) (DBODC)]^+] , thanks.
Ans: 3.48
